Below is a list of entries, each paired with its recorded pIC50 value.
assay: Antagonist activity at PAR4 in human platelet rich plasma assessed as inhibition of gamma-PAR4 agonist peptide (AYPGKF-NH2)-induced platelet aggregation preincubated for 5 mins followed by peptide addition and measured after 5 mins by aggregometer
pIC50: −log10 of the molar value.
measured.property: pIC50

• COc1ncc2c(-c3nc4cc(F)c5c(c4s3)C[C@H](COC(=O)Nc3cc(F)cc(C#N)c3)O5)cc(C)cc2n1 = 8.46
• COc1ncc2c(-c3nc4cc(F)c5c(c4s3)C[C@H](COC(=O)Nc3cccc(C#N)c3)O5)cc(C)cc2n1 = 8.19
• COCc1ncc2c(-c3nc4cc(F)c(OCCOC(=O)Nc5cc(F)cc(C#N)c5)cc4s3)cc(C)cc2n1 = 8.02

* * *

experiment: Antagonist activity at PAR4 in mouse washed platelets assessed as inhibition of gamma-PAR4 agonist peptide (AYPGKF-NH2)-induced platelet aggregation preincubated for 5 mins followed by peptide addition and measured after 5 mins by aggregometer
measured.property: IC50

• COc1ncc2c(-c3nc4cc(F)c5c(c4s3)C[C@H](COC(=O)N3CCOCC3)O5)cc(C)cc2n1 = 0.168 µM
• COCCOc1ncc2cc(C)cc(-c3nc4c(Cl)cc(OC)cc4s3)c2n1 = > 1 µM
• COc1ncc2c(-c3nc4cc(F)c(OCCO)cc4s3)cc(C)cc2n1 = 0.027 µM
• COCOc1ncc2c(-c3nc4ccc(OC)cc4s3)cc(C)cc2n1 = 0.109 µM
• COc1cc(Cl)c2nc(-c3cc(C)cc4cnc(C)nc34)sc2c1 = 0.064 µM
• CNc1ncc2c(-c3nc4c(Cl)cc(OC)cc4s3)cc(C)cc2n1 = 0.223 µM
• COc1ccc2nc(-c3cc(C)cc4nc(OC(C)C)ncc34)sc2c1 = 0.362 µM
• COc1ncc2c(-c3nc4cc(F)c5c(c4s3)C[C@H](COC(=O)Nc3cc(F)cc(C#N)c3)O5)cc(C)cc2n1 = 0.0086 µM
• COc1cc(Cl)c2nc(-c3cc(C)cc4cnc(OC)nc34)sc2c1 = 0.032 µM
• CCOc1ncc2cc(C)cc(-c3nc4c(Cl)cc(OC)cc4s3)c2n1 = 0.567 µM

* * *

experiment: Antagonist activity at PAR4 in mouse washed platelets assessed as inhibition of gamma-PAR4 agonist peptide (AYPGKF-NH2)-induced platelet aggregation preincubated for 5 mins followed by peptide addition and measured after 5 mins by aggregometer
Below is a list of entries, each paired with its recorded log10 IC50 value.
measured.property: log10 IC50 (log10 of the value in nM)

• COc1ncc2c(-c3nc4cc(F)c(OC)cc4s3)cc(C)cc2n1 = 1.32
• COc1ncc2c(-c3nc4cc(F)c5c(c4s3)C[C@H](COC(=O)Nc3cnc(C)nc3)O5)cc(C)cc2n1 = 2.84
• COc1cc(Cl)c2nc(-c3cc(C)cc4cnc(OC5CCCC5)nc34)sc2c1 = 2.99
• COc1cc(Cl)c2nc(-c3cc(C)cc4cncnc34)sc2c1 = 1.86
• COc1ccc2nc(-c3cc(C)cc4nc(OC)ncc34)sc2c1 = 2.01
• CCOc1ncc2c(-c3nc4c(F)cc(OC)cc4s3)cc(C)cc2n1 = 2.44
• COc1cc(F)c2nc(-c3cc(C)cc4nc(OC)ncc34)sc2c1 = 1.90
• COc1ccc(NC(=O)OC[C@H]2Cc3c(c(F)cc4nc(-c5cc(C)cc6nc(OC)ncc56)sc34)O2)cc1 = 1.98
• COCc1ncc2c(-c3nc4cc(F)c(OCCOC(=O)Nc5cc(F)cc(C#N)c5)cc4s3)cc(C)cc2n1 = 1.28
